Cited source for all entries: the RNAGym collection of RNA variant scans (doi:10.1073/pnas.2313332121)

B1: TPR t1 (parent)
chain: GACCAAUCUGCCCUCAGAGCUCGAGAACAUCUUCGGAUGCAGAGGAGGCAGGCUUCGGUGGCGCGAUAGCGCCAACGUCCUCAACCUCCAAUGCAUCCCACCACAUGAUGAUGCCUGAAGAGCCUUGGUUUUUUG

Variants of: B1
procedure.summary: polymerase ribozyme fitness, log enrichment relative to wild type (log ratio); higher = more active; in vitro selection for triplet polymerase activity
I would appreciate it if you labelled entries satisfied when polymerase ribozyme fitness (log ratio) is -2 or higher, otherwise not satisfied.

Would you please look over these solved cases?
mutation.list | class.assignment
C101A U126G G127C | not satisfied
A6U C8G G44U C49A C72A G77U G120C U130G | satisfied
C13U G61A | satisfied
C20G C62U U125A | not satisfied
G71A C115A C123U | not satisfied
A24G C85A U96A | not satisfied
G60U G93C | satisfied
C3G G48C U87G U130C | satisfied
G71C U112C | satisfied
C15A A16C C72A | not satisfied

Query: Does polymerase ribozyme fitness (log ratio) meet or surpass -2 for C13U A41U ?
Response: satisfied

Query: Now this one: G58A U78G
Response: satisfied

Query: Now this one: A37U A50G
Response: satisfied

Query: Now this one: A66C G69A
Response: not satisfied

Query: Now this one: G69U C114U U133A
Response: satisfied

Query: Now this one: C11U A105C A118G
Response: not satisfied

Query: Now this one: C80U C123A
Response: satisfied

Query: Now this one: U14C A16U C88U C101A U129G
Response: not satisfied

Query: Now this one: C15A G52U A66U C94G
Response: not satisfied

Query: Now this one: C15A G42A G71U G117C
Response: not satisfied

Query: Now this one: C34U C101A
Response: not satisfied

Query: Now this one: A5G G52U U92C C114G
Response: not satisfied
